Test system: NCI-H226 lung
Assay: NCI-60 one-dose screen, 48 h (100 = growth as untreated, 0 = no growth, -100 = all killed)
Details: 10 µM unless noted
Compounds without any hit were thinned out: in the full panel of roughly 83,000, 20% have a hit. Calls of active or inactive are those of the source. Rule for the calls: active = growth percent below 10; inactive = the rest.
In this section, each of the compounds is paired with its reported growth.

1. C[C@]12CCc3c(ccc4cc(O)ccc34)[C@@H]1C[C@H](O)[C@@H]2O | 94.7% (inactive)
2. CON1CCC[C@]2(C)[C@H]3CC[C@@H]4[C@H]5[C@@H](O)C(C)(C)CC[C@]5(CO)CC[C@@]4(C)[C@]3(C)CC[C@H]2C1(C)C | 92.8% (inactive)
3. CCCCCCCCCCCCC[C@H](O)C[C@H](O)[C@H](C)N | 126% [1.25 µM] (inactive)
4. CC(=O)N1N=C(c2ccc(F)cc2)CC1c1sc(N(C)Cc2ccccc2)nc1Cl (centres undefined) | 102% (inactive)
5. COc1cc(-c2[nH]ncc2Nc2ccc(Cl)cc2)cc(OC)c1OC | 73.2% (inactive)

// growth lookup, compound = COc1ccc(C(=O)N/N=C/c2ccc(O)cc2O)cc1Nc1ccnc(C(F)(F)F)c1 , result: 45% (inactive)

Looking up O=C1/C(=C/c2ccccc2[N+](=O)[O-])Cc2ccccc21 , I see its growth listed as 19.4% (inactive)

Lab book: growth of CCCCC(NC(=O)CN1C(=O)/C(=C/C(C)=C/c2ccccc2)SC1=S)C(=O)O (centres undefined) noted as 93.9% (inactive)

Form: compound = CCOc1nc(-c2ccccc2)cc2c(O)c(C(=O)N/N=C/c3ccc(N(C)C)cc3)[nH]c(=O)c12 ; growth = 97.1% (inactive)

Lab note: measured growth of CC[C@@H]1NC(=O)[C@H]([C@H](O)[C@H](C)C/C=C/c2ccc(CN3C(=O)C(C)=C(C)C3=O)cc2)N(C)C(=O)[C@H](C(C)C)N(C)C(=O)[C@H](CC(C)C)N(C)C(=O)[C@H](CC(C)C)N(C)C(=O)[C@@H](C)NC(=O)[C@H](C)NC(=O)[C@H](CC(C)C)N(C)C(=O)[C@H](C(C)C)NC(=O)[C@H](CC(C)C)N(C)C(=O)CN(C)C1=O was 65% (inactive)

Record N#Cc1c(N)nnn1Cc1cc(=O)oc2ccc(O)cc12 , field growth: 95.7% (inactive)

Value of measured growth for the entry Nc1nc(CSc2n[nH]c(N)n2)nc(Nc2ccccc2)n1 : 101% (inactive)

Field growth (entry O=C(Cc1ccc(F)cc1)c1ccccc1 ) reads 110% (inactive)

growth recorded for this compound, COc1ccc(/C(C)=C(\c2ccc(OCCN3CCOCC3)cc2)c2ccc(OC(=O)C3CCCCC3)cc2)cc1 , is 113% (inactive)

====

Test system: SF-268 CNS
Experiment: NCI-60 one-dose screen, 48 h
Details: 10 µM unless noted
The panel holds about 83,000 compounds, 20% with a hit somewhere; the sample as a whole holds those more often. Activity calls are given as the source filed them. The calls were made as follows: active = growth percent below 10; inactive = the rest.
The reply should be one of these categories: Y = active, N = inactive

Previously resolved entries follow.
1. Cc1ccc(Cl)cc1N1CCN(C(=O)[C@@H]2C[C@@H]2c2ccc(F)cc2)CC1 | N
2. Cc1ccc(S(=O)(=O)Nc2cc(Sc3ccccc3)c(O)c3ccccc23)cc1 | N
3. COc1ccc(-c2nc(Cl)c3c(C)nn(-c4ccc(F)cc4)c3n2)cc1 | N

Task: Per the records of this test, what outcome belongs to CSc1nnc(-c2cc3c([nH]c4ccccc43)c(-c3cccc(O)c3)n2)n1-c1ccc(C)cc1 ?
Output: N

Task: Status in this test for Cc1ccc(/C=C/c2c(C(=O)/C=C/c3ccccc3)c(C)nc3ccccc23)cc1 ?
Output: N

====

System: ACHN renal
Test: NCI-60 one-dose screen, 48 h
Conditions: 10 µM unless noted
Compounds without any hit were thinned out: in the full panel of roughly 83,000, 20% have a hit. Activity calls are given as the source filed them. How the source made its calls: active means growth percent below 10; inactive means the rest.
A correct response names exactly one class from active, inactive

Field: example entries. Status: answers known.
1) COC(=O)N/N=C/c1c[n+]([O-])c2ccccc2[n+]1[O-] | inactive
2) O=C(CN1C(=O)S/C(=C\C(Cl)=C\c2ccccc2)C1=O)NCCCn1ccnc1 | active
3) Clc1ccc(Nc2nc(Nc3ccc(Cl)cc3)nc(Nc3ccc(-c4cc(-c5cccc(Cl)c5)on4)cc3)n2)cc1 | inactive

Task: Answer briefly: the call reported for C[C@@H]1O[C@@H](O[C@H]2[C@@H](OC(=O)[C@]34CCC(C)(C)C[C@H]3C3=CC[C@@H]5[C@@]6(C)C[C@H](O)[C@H](O[C@@H]7O[C@H](CO)[C@@H](O)[C@H](O)[C@H]7O)[C@@](C)(CO)[C@@H]6CC[C@@]5(C)[C@]3(C)C[C@H]4O)OC[C@@H](O)[C@@H]2O)[C@H](O)[C@H](O[C@@H]2OC[C@@H](O)[C@H](O[C@@H]3OC[C@](O)(CO)[C@H]3O[C@@H]3OC[C@@H](O)[C@H](O)[C@H]3O)[C@H]2O)[C@H]1O[C@@H]1OC[C@](O)(CO)[C@H]1O in this assay.
Output: inactive

Task: Identify the outcome logged in this assay for the compound shown: CC(=O)/C=C/c1ccc(OCc2ccc(Cl)cc2)cc1
Output: inactive

Task: Dear all, I need the recorded test outcome for CN1CCN(CCNC(=O)c2cccc(CN3c4cccc5c4C(=Cc4cccnc43)N(C)C5=O)c2)CC1 , thank you.
Output: inactive

Task: Outcome? C=CCOc1ccc(/C=C2\SC(=S)N(CCc3ccc(O)cc3)C2=O)cc1
Output: inactive

Task: Lab log entry: N#Cc1c(N)nnn1Cc1cc(=O)oc2ccc(O)cc12 — outcome as called in the assay?
Output: inactive

====

System: DU-145 prostate
Experiment: NCI-60 one-dose screen, 48 h (100 = growth as untreated, 0 = no growth, -100 = all killed)
Conditions: 10 µM unless noted
This is part of a sample that, as a whole, favours compounds with a hit. Of some 83,000 tested, about 20% had one in any assay.
Entries whose growth is below 70% take fulfilled; entries at or above 70% take not fulfilled.

1. COc1ccc(-c2ccc(-c3ccc(C(=N)N)cn3)s2)cc1Cl | fulfilled

Task: Does COc1cc(/C=C2/C=C(c3ccc(C(C)(C)C)cc3)N(CCc3ccc(S(N)(=O)=O)cc3)C2=O)cc(OC)c1OC have growth strictly under 70%?
Output: not fulfilled

Task: Quick check: growth of CN1Cn2c(ccc2C(F)(F)F)C(=O)CS1(=O)=O under 70%?
Output: not fulfilled

Task: Lab note: growth threshold 70%. Does this molecule come in strictly under it? O=C1/C(=C/c2ccc(-c3ccccc3C(F)(F)F)o2)SC(=S)N1CCc1ccc(O)cc1
Output: fulfilled

Task: I'd appreciate it if you could check whether Nc1nc(CSc2n[nH]c(N)n2)nc(Nc2ccccc2)n1 has growth smaller than 70%.
Output: not fulfilled

Task: State whether 70% exceeds growth recorded for N=c1ccccn1CCO .
Output: not fulfilled

====

Tested on: OVCAR-4 ovarian
Assay: NCI-60 one-dose screen, 48 h
Details: 10 µM unless noted
This is part of a sample that, as a whole, favours compounds with a hit. Of some 83,000 tested, about 20% had one in any assay. Activity calls are given as the source filed them. Rule for the calls: active = growth percent below 10; inactive = the rest.
I would appreciate it if you answered using one of these outcomes: active, inactive

Before answering, review these 5 worked examples.
1) COc1cc(-c2[nH]ncc2Nc2ccc(Cl)cc2)cc(OC)c1OC | inactive
2) NS(=O)(=O)c1ccc(C(=O)N=Nc2c(O)[nH]c3c(F)cccc23)cc1 | inactive
3) Clc1ccc(CNc2ccc3nc(CCC4CCCCC4)[nH]c3c2)cc1 | inactive
4) Cc1cc2nc(C(Cl)Cl)nc(-c3ccc(Cl)cc3)n2n1 | active
5) Cc1cc(N2CCCCC2)nc(NCc2cc(Nc3ccnc4cc(Cl)ccc34)ccc2F)n1 | active

Task: Tell me the assay call for COc1ccc(/C=N/NC(=O)CN2CCN(c3cc4c(cc3F)c(=O)c(C(=O)O)cn4C3CC3)CC2)cc1O please.
Output: inactive

====

Tested on: MDA-MB-231 breast
Test: NCI-60 one-dose screen, 48 h
Conditions: 10 µM unless noted
This is part of a sample that, as a whole, favours compounds with a hit. Of some 83,000 tested, about 20% had one in any assay. Activity calls are given as the source filed them. Rule for the calls: active = growth percent below 10; inactive = the rest.
Please answer using one outcome listed in active, inactive

1) CC(C)=CCc1cc(O)c(O)c2oc3cc(O)cc(O)c3c(=O)c12 | inactive
2) CC12OC(CC(O)C1O)n1c3ccccc3c3c4c(c5c6ccccc6n2c5c31)C(=O)N(CCN1CCOCC1)C4=O (centres undefined) | inactive
3) Cc1ccc(-c2nc3nc(-c4ccc(F)cc4)nc(N4CCCNCC4)c3o2)cc1 | active
4) COC1/C=C/OC2(C)Oc3c(C)c(O)c4c(O)c(c(C=NOC(c5ccccc5)c5ccccc5)c(O)c4c3C2=O)NC(=O)/C(C)=C/C=C/C(C)C(O)C(C)C(O)C(C)C(OC(C)=O)C1C (centres undefined) | active
5) Cc1cccc(Cc2cnc(NC(=O)CCCOc3ccc(Cl)cc3)s2)c1 | inactive
6) CCCCCCCCCCCCCCCCCCn1cc(COc2ccc(C=O)cc2)nn1 | inactive
7) O=C(CCCCCCCCC(=O)N/N=C\c1ccccc1O)N/N=C\c1ccccc1O | inactive
8) COc1ccc(/C(C)=C(\c2ccc(OCCN3CCOCC3)cc2)c2ccc(OC(=O)C3CCCCC3)cc2)cc1 | inactive

Task: Record request — test call for Cc1ccc(S(=O)(=O)Nc2cc(Sc3ccccc3)c(O)c3ccccc23)cc1
Output: active

Task: Fill in: this test's call for CCOC(=O)n1cc(-c2nonc2-c2cn(C)c3ccc(OC)cc23)c2cc(F)ccc21 is ___
Output: inactive

Task: Fill in: this test's call for C/C=C(/C)C(=O)O[C@@H]1CC(C)(C)CC2C34OC(=O)[C@@]21CC[C@@]3(C)[C@]1(C)CCC2C(C)(C)C(=O)CC[C@]2(C)C1C[C@@H]4Cl (some centres undefined) is ___
Output: inactive

Task: For CC1(C)C(N)=Nc2cc(OCCCN3Cc4ccc(OCCc5cn(CC(=O)N6CCC(CCN7CCCC7)CC6)nn5)cc4C3)c(OCC3CC3)cc21 , which call appears in the assay record?
Output: inactive

Task: Please share the test call associated with CC/C(=C(/c1ccc(O)cc1)c1ccc(OCCN2CCCCCC2)cc1)c1ccc(Cl)cc1 .
Output: inactive

Task: Hi team, can someone confirm the assay call for CN1CCN(c2ccc(Nc3ncc(C(N)=O)c(NCCCNC(=O)C4CCC4)n3)cc2)CC1 ?
Output: inactive

Task: Assay outcome for CC(Sc1ccccc1)C(=O)O (centres undefined) : what was it?
Output: inactive

Task: Kindly provide the recorded test outcome for the following molecule: NCCOCCOc1ccccc1
Output: inactive

Task: # fetch the recorded call for COc1ccc(Oc2nc(Nc3ccc(N4CCOCC4)cc3)ncc2NC(=O)c2cc(OC)cc(OC)c2)cc1 here
Output: inactive

Task: Hi, do you know how Clc1ccc2c(NCCN3CCN(c4ccnc(N5CCCC5)n4)CC3)ccnc2c1 came out in this test?
Output: active

Task: Per the assay record, what outcome was assigned to N=c1ccccn1CCO ?
Output: inactive
